Test system: APAE001 (ATCC27853)
Experiment: MIC broth microdilution, APAE001
Type: cell-based, P. aeruginosa
Details: Pseudomonas aeruginosa, ATCC27853, read-out: MIC APAE001, APAE001 is ATCC27853
Entries and their MIC

Please report the recorded MIC for CC(C)(O)[C@H](NC(=O)c1ccc(C#C/C=C/c2ccc(CNC3CC3)cc2)cc1)C(=O)NO .
< 2 µg/mL

Thanks! And C[C@@H](N)[C@H](NC(=O)c1ccc(C#CC#CC2CCCC2)cc1)C(=O)NO ?
< 2 µg/mL

Thanks! And C[C@@H](NCC(=O)N[C@H](C)[C@H](NC(=O)c1ccc(C#C/C=C/c2ccccc2)cc1)C(=O)NO)c1ccccc1 ?
16 to 64 µg/mL

Thanks! And C[C@@H](N)[C@H](NC(=O)c1ccc(/C=C/C#Cc2ccc(CNC3CC3)cc2)cc1)C(=O)NO ?
< 2 µg/mL

Thanks! And C[C@@H](N)[C@H](NC(=O)c1ccc(C#Cc2ccc(CNCCC#N)cc2)cc1)C(=O)NO ?
< 2 µg/mL
